Recorded values, source ChEMBL document CHEMBL1201862.

- Tested on: HL-60
- test-description: NCI tumour cell line growth inhibition, 48 h
The source made the active and inactive calls. Cut-off read from the data, not from the text of the source: active = GI50 up to about 1.1 µM and inactive = higher.
Response enum: active, inactive

A selection of reference data follows.
CCSCCCSCCSCC	inactive
O=C(Nc1ccc(Cl)cc1)Oc1ccc(C(=S)Nc2ccc(Br)cc2)cc1	inactive
CCN(CC)C(=S)SCC(=O)Nc1nc2c(s1)CCCC2	inactive
CCOC(=O)C1N(S(=O)(=O)c2ccc(C)cc2)CCC12C(c1ccc(OC)c(OC)c1)=Nc1ccccc12 (stereo unspecified)	inactive
CCOC(=O)c1nc2cc(F)cc(F)c2[nH]c1=O	inactive
COC1CC(OC2C(C)OC(OC3C(C)OC(OC4C(C)OC(O[C@H]5CC[C@@]6(C)C(=CC[C@]7(O)[C@@H]6C[C@@H](OC(=O)/C=C(\C)C(C)C)[C@@]6(C)[C@]7(O)CC[C@@]6(O)C(C)=O)C5)CC4OC)CC3OC)CC2OC)OC(C)C1O (stereo partly specified)	inactive

Ask: Check the results log: what was the call for Nc1ccn(CC(O)c2cc3ccccc3[nH]2)c(=O)n1 (stereo unspecified) ?
Result: inactive

Ask: Tell me the assay call for C=C(COC(C)=O)CC(/C=C(\C)CC/C=C(\C)CO)OC(C)=O (stereo unspecified) please.
Result: inactive

Ask: Per the records of this test, what outcome belongs to CCC1C(c2cc(OC)c(OC)c(OC)c2)c2cc3c(cc2OC1N1CCCC1)OCO3 (stereo unspecified) ?
Result: inactive

Ask: Field: outcome | Entry: `Nc1ccc(-c2nc3cc(F)ccc3s2)cc1I`
Result: inactive

Ask: Record lookup: outcome of this test for `CCOc1ccc2nc(NC(=O)c3c/c(=N\NC(=O)C[N+](C)(C)C)c4ccc(O)cc4o3)sc2c1` ?
Result: inactive

* * *

- System: NCI-H460
- test-description: NCI tumour cell line growth inhibition, 48 h
Calls of active or inactive are those of the source. Rule as the data show it: active = GI50 up to about 1.1 µM and inactive = higher.
Valid outcomes are listed here; reply with one: 1 = active, 0 = inactive

Please review the following examples before continuing.
CN(CC#N)C1CCCC[C@H]1O (stereo not given in full)	0
O=C1C(Br)=CC2(C=C1Br)CCNC1=C2C(=O)c2ncccc2C1=O	1
COc1cc2[nH]c(=O)c3cc(-c4ccccc4)cc4c(Cl)nc(c1OC)c2c43	0
CSc1cc(Cl)c(C)cc1S(=O)(=O)NC(=O)NNc1ccc(F)cc1	0

Below: the item to evaluate.
Ask: I would be grateful if you could indicate the recorded call for `COc1ccc(-c2cc(-c3ccc(Nc4ccnc5cc(Cl)ccc45)cc3)[nH]c(=O)c2C#N)c2ccccc12` .
Result: 0

* * *

- Test system: SNB-19
- test-description: NCI tumour cell line growth inhibition, 48 h
The source made the active and inactive calls. No stated cut-off is given here; in the data, active = GI50 up to about 1.1 µM and inactive = higher.
Pick one and only one: true (1) for active, false (0) for inactive

Worked set:
CN(C)CC1CC/C(=C\c2ccc3c(c2)OCO3)C1=O (stereo unspecified)	false (0)
O=C1OC(OC/C(Br)=C(\Br)COC2OC(=O)C(Cl)=C2Cl)C(Cl)=C1Cl (stereo unspecified)	false (0)
CC(=O)Oc1ccc(-c2c(OC(C)=O)c(OC(C)=O)c(-c3ccc(OC(C)=O)c(OC(C)=O)c3)c(OC(C)=O)c2OC(C)=O)cc1	false (0)
CC(=O)c1c(=O)n(-c2ccc(C)cc2)c(O)c2c(N)n[nH]c12	false (0)
CN1CCN(c2ccc(-n3cc(C(=O)O)c(=O)c4cc(F)c(N5CCN(C)CC5)cc43)nc2)CC1	false (0)
CCOc1ccc2nc(NC(=O)c3c/c(=N\NC(=O)C[N+](C)(C)C)c4ccc(O)cc4o3)sc2c1	false (0)
COc1ccc2c(c1)CC1c3c(ccc(OC)c3O)CC2N1C (stereo unspecified)	false (0)
CC(=O)/C=C/CCC(=O)/C=C/C(=O)OC(CCC(=O)/C=C/C(=O)O)CC(C)=O (stereo unspecified)	false (0)
CCOC(=O)C1C(c2ccc(O)c(OC)c2)c2c(n[nH]c2O)CC1(C)O (stereo unspecified)	false (0)
C=CCNC(=S)N/N=C1\C(=O)N(CN2CCOCC2)c2ccc([N+](=O)[O-])cc21	false (0)

Ask: Fill in: this test's call for `Cc1ccc(S(=O)(=O)N/N=C/C(Br)=C(/Br)C(=O)O)cc1` is ___
Result: false (0)

Ask: // param item: `Brc1ccc2[nH]c3c(C4=NCCC4)nccc3c2c1` ; yields the recorded call
Result: false (0)

Ask: I would be grateful if you could indicate the recorded call for `CC(=O)OCc1ccc2oc(=O)c(C(=O)Oc3cccc(Cl)c3)cc2c1` .
Result: false (0)

Ask: Can you look up the reported call for O=[N+]([O-])c1ccc(NC2OCC(O)C(O)C2O)cc1 (stereo unspecified) for me?
Result: false (0)

Ask: Hey, what did the test say about `C/C(=N\NC(=S)N1CCCCCCCCCCCC1)c1ccccn1` ?
Result: true (1)

Ask: Hello, I am checking results. What call was entered for CC1Cc2c(N)nc(NN)nc2NC1=O (stereo unspecified) ?
Result: false (0)
